Target: Nucleoprotein (Lymphocytic choriomeningitis virus (strain Armstrong))
Assay: qHTS for Inhibitors of the Functional Ribonucleoprotein Complex (vRNP) of Lymphocytic Choriomeningitis Arenaviruses (LCMV): LCMV Primary Screen - GLuc reporter signal (AID 1347086); note: nearly all actives have a fitted effect of over 70% in size
Details: LCMV minigenome vRNP cell assay, Gaussia luciferase reporter; series mostly up to 57.5 µM
Results filed as inconclusive are left out. Active and inactive are the calls of the source. Calls come from the whole dose curve.

- molecule: "CC(=O)[C@H]1CC[C@H]2[C@@H]3CC=C4C[C@@H](O)CC[C@]4(C)[C@H]3CC[C@]12C"
  outcome: "inactive"
- molecule: "CN1CCCN=C1/C=C/c1cccs1"
  outcome: "inactive"
- molecule: "CN(C)C(=O)Oc1cc(OC(=O)N(C)C)cc(C(O)CNC(C)(C)C)c1 (stereo unspecified)"
  outcome: "inactive"
- molecule: "CCCC(C(=O)OCCN(CC)CC)(c1ccccc1)c1ccccc1"
  outcome: "inactive"
- molecule: "CCCCN1CCCC[C@H]1C(=O)Nc1c(C)cccc1C"
  outcome: "inactive"
- molecule: "Cc1cccc(C)c1NC(=O)CN1CCCC1"
  outcome: "inactive"
- molecule: "CCCc1ncc(C[n+]2ccccc2C)c(N)n1"
  outcome: "inactive"
- molecule: "Cc1nnc(C(=O)NC(C)(C)c2nc(C(=O)NCc3ccc(F)cc3)c(O)c(=O)n2C)o1"
  outcome: "inactive"
- molecule: "Oc1ccc(Cl)cc1Cc1cc(Cl)ccc1O"
  outcome: "inactive"
- molecule: "C[N+]1(CC2COC(c3ccccc3)(c3ccccc3)O2)CCCCC1 (stereo unspecified)"
  outcome: "inactive"
- molecule: "Nc1c(CC(=O)O)cccc1C(=O)c1ccc(Br)cc1"
  outcome: "inactive"

From: PubChem BioAssay (NCATS)
